- assaySystem: T1, TNF alpha (UniProt P01375 77-233, limits assumed)
- T1 construct: also called tumour necrosis factor; TNFSF2
- T1 sequence (P01375 77-233 limits assumed): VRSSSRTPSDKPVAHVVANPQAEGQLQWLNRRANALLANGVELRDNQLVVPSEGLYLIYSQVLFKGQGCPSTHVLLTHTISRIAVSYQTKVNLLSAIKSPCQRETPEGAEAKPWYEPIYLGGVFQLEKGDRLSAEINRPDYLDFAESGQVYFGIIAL
- assaySummary: SPR (BIAcore 3000), TNF alpha captured by immobilised antibody AHC3712, binder injected
- Description: Surface plasmon resonance (SPR) binding analysis was performed on a BIAcore 3000 instrument (BiaCore, Sweden). TNF alpha capture antibody (AHC3712, Biosource International) to be immobilized was dissolved in 10 mM NaAcetate pH 5.0 and then immobilized on a CM5 BiaCore sensor chip using the Amine Coupling kit (BiaCore, Sweden). Binding analysis was performed at a flow rate of 5 μl/min. […] Binding data were evaluated using the BIAevaluation program version 3.2 (BiaCore).
Please provide measured kon for the entries that follow.
Please respond with the number in M⁻¹ s⁻¹ and leave the unit unwritten.

Field request: kon | item: TN-2-D (trimeric) (designed binder, also called trimeric version of TN3-2-D) EPPTQKPKKIVNAKKDVVNTKMFEELKSRLDTLAQEVALLKEQQALQTVCLKGTKVHMKCFLAFTQTKTFHEASEDCISRGGTLSTPQTGSENDALYEYLRQSVGNEAEIWLGLNKVRSRYFWIDMTGTRIAYKNWETEITAQPDPNNRENCAVLSGAANGKWFGKRCRDQLPYICQFGIV
506000

Field request: kon | item: TN-2-B (trimeric) (designed binder, also called trimeric version of TN3-2-B) EPPTQKPKKIVNAKKDVVNTKMFEELKSRLDTLAQEVALLKEQQALQTVCLKGTKVHMKCFLAFTQTKTFHEASEDCISRGGTLSTPQTGSENDALYEYLRQSVGNEAEIWLGLNKVRSRYFWMDMTGTRIAYKNWETEITAQPDPTNNENCAVLSGAANGKWFGKRCRDQLPYICQFGIV
3.02e+06

Field request: kon | item: TN-2-C (trimeric) (designed binder, also called trimeric version of TN3-2-C) EPPTQKPKKIVNAKKDVVNTKMFEELKSRLDTLAQEVALLKEQQALQTVCLKGTKVHMKCFLAFTQTKTFHEASEDCISRGGTLSTPQTGSENDALYEYLRQSVGNEAEIWLGLNKVRSRYFWVDMTGTRIAYKNWETEITAQPDPTNRENCAVLSGAANGKWFDKRCRDQLPYICQFGIV
884000

Field request: kon | item: TN3-2-B (monomeric) (designed binder, Purified monomer from the E. coli periplasm (pBAD) for SPR) ALQTVCLKGTKVHMKCFLAFTQTKTFHEASEDCISRGGTLSTPQTGSENDALYEYLRQSVGNEAEIWLGLNKVRSRYFWMDMTGTRIAYKNWETEITAQPDPTNNENCAVLSGAANGKWFGKRCRDQLPYICQFGIV
1.4e+07

Field request: kon | item: TN3-2-C (monomeric) (designed binder, Purified monomer from the E. coli periplasm (pBAD) for SPR) ALQTVCLKGTKVHMKCFLAFTQTKTFHEASEDCISRGGTLSTPQTGSENDALYEYLRQSVGNEAEIWLGLNKVRSRYFWVDMTGTRIAYKNWETEITAQPDPTNRENCAVLSGAANGKWFDKRCRDQLPYICQFGIV
134000

Field request: kon | item: TN3-2-D (monomeric) (designed binder, Purified monomer from the E. coli periplasm (pBAD) for SPR) ALQTVCLKGTKVHMKCFLAFTQTKTFHEASEDCISRGGTLSTPQTGSENDALYEYLRQSVGNEAEIWLGLNKVRSRYFWIDMTGTRIAYKNWETEITAQPDPNNRENCAVLSGAANGKWFGKRCRDQLPYICQFGIV
364000
